viability at 72 h, 0.000762939 uM by entry:
experiment: Cytotoxicity assay (CellTiter-Glo, 72 h), MESO-1; assay type: cell-based; details: human, MESO-1 malignant pleural mesothelioma cells, conc 0.000762939 uM; raw replicate data; read-out: MESO1 viability (%)
Response body: numeric value in %, unit text excluded.

INSERT INTO measurements (molecule, reported_result) VALUES
  ('CO[C@@H]1C[C@H](C[C@@H](C)[C@@H]2CC(=O)[C@H](C)/C=C(\C)[C@@H](O)[C@@H](OC)C(=O)[C@H](C)C[C@H](C)/C=C/C=C/C=C(\C)[C@H](O)C[C@@H]3CC[C@@H](C)[C@@](O)(O3)C(=O)C(=O)N3CCCC[C@H]3C(=O)O2)CC[C@H]1O [Compound 17, (16R)-16-O-demethyl rapamycin]', 97.1);

Next molecule, please.
Quickly give me recorded viability at 72 h, 0.000762939 uM for COC1CC2CCC(C)C(O)(O2)C(=O)C(=O)N2CCCCC2C(=O)OC(C(C)CC2CCC(O)C(OC)C2)CC(=O)C(C)C=C(C)C(O)CC(=O)C(C)C=C(C)C=CC=CC=C1C (centres unmarked) [Compound 14]
104

###

test: Cytotoxicity assay (CellTiter-Glo, 72 h), SKOV-3; type: cell-based, human; details: human, SKOV-3 cells (ovarian adenocarcinoma), conc 0.0488281 uM; raw replicate data; read-out: SKOV3 viability (%)
Measured viability at 72 h, 0.0488281 uM by item
Your answer should be a plain number; it is taken to be in %.

Entry COC1CC2CCC(C)C(O)(O2)C(=O)C(=O)N2CCCCC2C(=O)OC(C(C)CC2CCC(O)C(OC)C2)CCC(C)C=C(C)C(O)C(OC)C(=O)C(C)CC(C)C=CC=CC=C1C (stereo not shown) [Compound 16, 32-desketorapamycin] needs its viability at 72 h, 0.0488281 uM filled in; supply it.
59.3

Identify the reported viability at 72 h, 0.0488281 uM for the following entry. CO[C@@H]1/C=C/C=C/[C@@H](C)C[C@@H](C)C(=O)C[C@H](O)/C(C)=C/[C@@H](C)C(=O)C[C@@H]([C@H](C)C[C@@H]2CC[C@@H](O)[C@H](OC)C2)OC(=O)[C@@H]2CCCCN2C(=O)C(=O)[C@]2(O)O[C@@H](CC[C@H]2C)C1 [Compound 9]
90.5

Read the entry COC1CC2CCC(C)C(O)(O2)C(=O)C(=O)N2CCCCC2C(=O)OC(C(C)CC2CCC(O)C(OC)C2)CC(=O)C(C)C=C(C)C(O)C(OC)C(=O)C(C)CC(C)C=CCCC=C1C (stereo not shown) [Compound 15, 19,20-dihidro-rapamycin] and write its reported viability at 72 h, 0.0488281 uM.
95.2

Item CO[C@@H]1C[C@H](C[C@@H](C)[C@@H]2CC(=O)[C@H](C)/C=C(\C)[C@@H](O)[C@@H](OC)C(=O)[C@H](C)C[C@H](C)/C=C/C=C/C=C(\C)[C@H](O)C[C@@H]3CC[C@@H](C)[C@@](O)(O3)C(=O)C(=O)N3CCCC[C@H]3C(=O)O2)CC[C@H]1O [Compound 17, (16R)-16-O-demethyl rapamycin] : provide viability at 72 h, 0.0488281 uM
84.3

Please report viability at 72 h, 0.0488281 uM for the following compound: COC1CC2CCC(C)C(O)(O2)C(=O)C(=O)N2CCCCC2C(=O)OC(C(C)CC2CCC(O)C(OC)C2)CC(=O)C(C)C=C(C)C(O)CC(=O)C(C)C=C(C)C=CC=CC=C1C (stereo not shown) [Compound 14]
100

Answer with the recorded viability at 72 h, 0.0488281 uM of CO[C@H]1C[C@@H]2CC[C@@H](C)[C@@](O)(O2)C(=O)C(=O)N2CCCC[C@H]2C(=O)O[C@H]([C@H](C)C[C@@H]2CC[C@@H](O)[C@H](OC)C2)CC(=O)[C@H](C)/C=C(\C)[C@@H](O)[C@@H](OC)C(=O)[C@H](C)C[C@H](C)/C=C/C=C/C=C/1C [Compound 1, rapamycin, reference compound] only.
61.1

Query viability at 72 h, 0.0488281 uM for CO[C@H]1C[C@@H]2CC[C@@H](C)[C@@](O)(O2)C(=O)C(=O)N2CCCC[C@H]2C(=O)O[C@H]([C@H](C)C[C@@H]2CC[C@@H](O)[C@H](OC)C2)CC(=O)[C@H](C)/C=C(\C)[C@@H](O)CC[C@H](C)/C=C/C=C/C=C/1C [Compound 7]
92.3

###

experiment: Cytotoxicity assay (CellTiter-Glo, 72 h), MESO-1; type: cell-based; details: human, MESO-1 malignant pleural mesothelioma cells, conc 3.125 uM; raw replicate data; read-out: MESO1 viability (%)
hey, just use 1.0 if measured viability at 72 h, 3.125 uM is less than 70%, otherwise 0.0

INSERT INTO measurements (molecule, assigned_category) VALUES
  ('CO[C@H]1C[C@@H]2CC[C@@H](C)[C@@](O)(O2)C(=O)C(=O)N2CCCC[C@H]2C(=O)O[C@H]([C@H](C)C[C@@H]2CC[C@@H](O)[C@H](OC)C2)CC(=O)[C@H](C)/C=C(\C)[C@@H](O)[C@@H](OC)C(=O)[C@H](C)C[C@H](C)/C=C/C=C/C=C/1C [Compound 1, rapamycin, reference compound]', 0.0);

Please determine if COC1CC2CCC(C)C(O)(O2)C(=O)C(=O)N2CCCCC2C(=O)OC(C(C)CC2CCC(O)C(OC)C2)CC(=O)C(C)C=C(C)C(O)CC(=O)C(C)C=C(C)C=CC=CC=C1C (centres unmarked) is below 70% in terms of viability at 72 h, 3.125 uM.
0.0

Strictly below 70%: is that where viability at 72 h, 3.125 uM of COC1CC2CCC(C)C(O)(O2)C(=O)C(=O)N2CCCCC2C(=O)OC(C(C)CC2CCC(O)C(OC)C2)CC(=O)C(C)C=C(C)C(O)C(OC)C(=O)C(C)CC(C)C=CCCC=C1C (centres unmarked) sits?
1.0

Is 70% strictly greater than the molecule's reported viability at 72 h, 3.125 uM? molecule: CO[C@@H]1C[C@H](C[C@@H](C)[C@@H]2CC(=O)[C@H](C)/C=C(\C)[C@@H](O)[C@@H](OC)C(=O)[C@H](C)C[C@H](C)/C=C/C=C/C=C(\C)[C@H](O)C[C@@H]3CC[C@@H](C)[C@@](O)(O3)C(=O)C(=O)N3CCCC[C@H]3C(=O)O2)CC[C@H]1O [Compound 17, (16R)-16-O-demethyl rapamycin]
0.0

###

assay: Cytotoxicity assay (CellTiter-Glo, 72 h), SKOV-3; assay type: cell-based, human; details: human, SKOV-3 cells (ovarian adenocarcinoma), conc 50 uM; raw replicate data; read-out: SKOV3 viability (%)
PROPERTY: viability at 72 h, 50 uM

Given the compound CO[C@@H]1C[C@H](C[C@@H](C)[C@@H]2CC(=O)[C@H](C)/C=C(\C)[C@@H](O)[C@@H](OC)C(=O)[C@H](C)C[C@H](C)/C=C/C=C/C=C(\C)[C@H](O)C[C@@H]3CC[C@@H](C)[C@@](O)(O3)C(=O)C(=O)N3CCCC[C@H]3C(=O)O2)CC[C@H]1O [Compound 17, (16R)-16-O-demethyl rapamycin] , write its reported viability at 72 h, 50 uM.
62.5%

Give reported viability at 72 h, 50 uM value for CO[C@H]1C[C@@H]2CC[C@@H](C)[C@@](O)(O2)C(=O)C(=O)N2CCCC[C@H]2C(=O)O[C@H]([C@H](C)C[C@@H]2CC[C@@H](O)[C@H](OC)C2)CC(=O)[C@H](C)/C=C(\C)[C@@H](O)CC(=O)[C@H](C)C[C@H](C)/C=C/C=C(C)/C=C/1C
20.5%

Provide viability at 72 h, 50 uM value for the following compound: CO[C@@H]1/C=C/C=C/[C@@H](C)C[C@@H](C)C(=O)C[C@H](O)/C(C)=C/[C@@H](C)C(=O)C[C@@H]([C@H](C)C[C@@H]2CC[C@@H](O)[C@H](OC)C2)OC(=O)[C@@H]2CCCCN2C(=O)C(=O)[C@]2(O)O[C@@H](CC[C@H]2C)C1
52.8%

###

biological target: FKBP12 and mTOR (Homo sapiens, UniProt P42345+P62942); construct: host or cells: HeLa cells; assay: Fluoppi analysis: induction of FKBP12-mTOR complex formation in transfected HeLa cells; assay type: cell-based; settings: Fluoppi, HeLa cells, 1 h treatment; three independent biological replicates; read-out: EC50, induction of the formation of FKBP-mTOR complex
Sequence (P42345 2025-2114 limits assumed): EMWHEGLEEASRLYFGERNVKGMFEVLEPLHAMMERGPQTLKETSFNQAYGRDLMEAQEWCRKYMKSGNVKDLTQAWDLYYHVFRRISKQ
Sequence (P62942 whole entry): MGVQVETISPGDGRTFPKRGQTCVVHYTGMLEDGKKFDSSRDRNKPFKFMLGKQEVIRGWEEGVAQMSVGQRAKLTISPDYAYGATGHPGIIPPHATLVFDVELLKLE
Below, each of the molecules is paired with its reported EC50 value.

Examples with their reported EC50 follow.
INSERT INTO assay_data (molecule, reported_result) VALUES
  ('CO[C@H]1C[C@@H]2CC[C@@H](C)[C@@](O)(O2)C(=O)C(=O)N2CCCC[C@H]2C(=O)O[C@H]([C@H](C)C[C@@H]2CC[C@@H](O)[C@H](OC)C2)CC(=O)[C@H](C)/C=C(\C)[C@@H](O)CC[C@H](C)/C=C/C=C/C=C/1C', '320 nM'),
  ('COC1CC2CCC(C)C(O)(O2)C(=O)C(=O)N2CCCCC2C(=O)OC(C(C)CC2CCC(O)C(OC)C2)CC(=O)C(C)C=C(C)C(O)CC(=O)C(C)C=C(C)C=CC=CC=C1C (stereo not shown)', '2130 nM'),
  ('COC1CC2CCC(C)C(O)(O2)C(=O)C(=O)N2CCCCC2C(=O)OC(C(C)CC2CCC(O)C(OC)C2)CC=C(C)C(O)CC(=O)C(C)CC(C)C=CC=CC=C1C (stereo not shown)', '21 nM');

API: the following record is the query input.
Hello, please tell me recorded EC50 for this one: CO[C@@H]1/C=C/C=C/[C@@H](C)C[C@@H](C)C(=O)C[C@H](O)/C(C)=C/[C@@H](C)C(=O)C[C@@H]([C@H](C)C[C@@H]2CC[C@@H](O)[C@H](OC)C2)OC(=O)[C@@H]2CCCCN2C(=O)C(=O)[C@]2(O)O[C@@H](CC[C@H]2C)C1
34 nM
